B1: CPEB3 Ribozyme (parent)
chain: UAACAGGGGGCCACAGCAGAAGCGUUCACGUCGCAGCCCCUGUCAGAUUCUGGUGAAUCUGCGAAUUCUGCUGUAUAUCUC

Variants of: B1
assay.explanation: self-cleavage, relative activity (ratio to wild type); higher = more cleavage; in vitro, sequencing
# if value of self-cleavage reaches 0.3, tag Yes; if it stays below, tag No

Look over these answered cases.
changes	label
A13G A15C	Yes
G36A U58G	No
A45C U74C	Yes

[ask] Given C11U A35G , state whether its self-cleavage is at least 0.3.
[reply] Yes

[ask] Given A28U G42A , state whether its self-cleavage is at least 0.3.
[reply] No
